Hi there, I'd appreciate the recorded self-cleavage kobs at 2500 uM GlcN6P for every entry that follows.
B1: glmS ribozyme (parent)
chain: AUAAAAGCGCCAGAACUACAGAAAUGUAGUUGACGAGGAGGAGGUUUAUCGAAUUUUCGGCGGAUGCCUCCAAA

Variants of: B1
Assay: self-cleavage kobs at 2500 uM GlcN6P; higher = faster cleavage; RNA array
Details: with glucosamine-6-phosphate
Variants at the floor of the assay were thinned out.
Give the value, in units of s⁻¹, as a plain number.

Query (variant): U54C C71U ; field requested: self-cleavage kobs at 2500 uM GlcN6P
0.0101

Query (variant): G13U U55A C58A ; field requested: self-cleavage kobs at 2500 uM GlcN6P
0.001

Query (variant): G29C C67A ; field requested: self-cleavage kobs at 2500 uM GlcN6P
0.000163

Query (variant): A15C U55A ; field requested: self-cleavage kobs at 2500 uM GlcN6P
0.00484

Query (variant): A53U G66U ; field requested: self-cleavage kobs at 2500 uM GlcN6P
0.000716

Query (variant): G32U A42G U55C U56C C58G ; field requested: self-cleavage kobs at 2500 uM GlcN6P
5.49e-05

Query (variant): G44U U45G ; field requested: self-cleavage kobs at 2500 uM GlcN6P
0.00801

Query (variant): C16G U69G ; field requested: self-cleavage kobs at 2500 uM GlcN6P
5.34e-05

Query (variant): G29U A39U C67G ; field requested: self-cleavage kobs at 2500 uM GlcN6P
0.00033

Query (variant): U49G C70U ; field requested: self-cleavage kobs at 2500 uM GlcN6P
0.00059

Query (variant): U30C G32U C34G C50G ; field requested: self-cleavage kobs at 2500 uM GlcN6P
9.31e-05

Query (variant): U31A G44A ; field requested: self-cleavage kobs at 2500 uM GlcN6P
9.2e-05

Query (variant): U45G U55G ; field requested: self-cleavage kobs at 2500 uM GlcN6P
0.00365

Query (variant): A53G U55A ; field requested: self-cleavage kobs at 2500 uM GlcN6P
0.0611

Query (variant): U47C C67U ; field requested: self-cleavage kobs at 2500 uM GlcN6P
0.000177

Query (variant): G44U U56A ; field requested: self-cleavage kobs at 2500 uM GlcN6P
6.59e-05

Query (variant): G41A G66C ; field requested: self-cleavage kobs at 2500 uM GlcN6P
2.49e-05

Query (variant): G29A G40A ; field requested: self-cleavage kobs at 2500 uM GlcN6P
0.000222

Query (variant): G13A C50G ; field requested: self-cleavage kobs at 2500 uM GlcN6P
4.08e-05

Query (variant): U47A A48G ; field requested: self-cleavage kobs at 2500 uM GlcN6P
8.16e-05

Query (variant): A14G C16A U45C G66C ; field requested: self-cleavage kobs at 2500 uM GlcN6P
0.000167

Query (variant): G29C U54C ; field requested: self-cleavage kobs at 2500 uM GlcN6P
0.000773

Query (variant): U55C U56C ; field requested: self-cleavage kobs at 2500 uM GlcN6P
5.28e-05

Query (variant): G7U G9A A14U C50G ; field requested: self-cleavage kobs at 2500 uM GlcN6P
0.000647

Query (variant): A15U U69A ; field requested: self-cleavage kobs at 2500 uM GlcN6P
8.33e-05

Query (variant): C19A G44U ; field requested: self-cleavage kobs at 2500 uM GlcN6P
0.000114

Query (variant): A12G U31A U45A ; field requested: self-cleavage kobs at 2500 uM GlcN6P
0.000216

Query (variant): U47G U56C C71A ; field requested: self-cleavage kobs at 2500 uM GlcN6P
5.07e-05

Query (variant): G59U C68U ; field requested: self-cleavage kobs at 2500 uM GlcN6P
2.67e-05

Query (variant): A39U G66U ; field requested: self-cleavage kobs at 2500 uM GlcN6P
0.0018

Query (variant): C50G G59U C67G ; field requested: self-cleavage kobs at 2500 uM GlcN6P
0.000245

Query (variant): U31G G37A C67U ; field requested: self-cleavage kobs at 2500 uM GlcN6P
5.28e-05

Query (variant): U30C A53U ; field requested: self-cleavage kobs at 2500 uM GlcN6P
0.000158

Query (variant): G41C A53C ; field requested: self-cleavage kobs at 2500 uM GlcN6P
6.77e-05

Query (variant): A14C G66A C71U ; field requested: self-cleavage kobs at 2500 uM GlcN6P
0.00114

Query (variant): A14C G40C ; field requested: self-cleavage kobs at 2500 uM GlcN6P
0.000285

Query (variant): C70G C71A ; field requested: self-cleavage kobs at 2500 uM GlcN6P
6.86e-05

Query (variant): U31G G41C ; field requested: self-cleavage kobs at 2500 uM GlcN6P
0.000167

Query (variant): A39G U57C ; field requested: self-cleavage kobs at 2500 uM GlcN6P
0.00013

Query (variant): A64C G66A ; field requested: self-cleavage kobs at 2500 uM GlcN6P
4.39e-05
